# assay.system: SMARCA2-HiBiT (Homo sapiens)
# Construct: SMARCA2-HiBiT knock-in Hela monoclonal cell (CS302366); host or cells: HeLa monoclonal knock-in line (CRISPR HiBiT knock-in at the endogenous locus, heterozygous)
# Sequence (P51531 whole entry): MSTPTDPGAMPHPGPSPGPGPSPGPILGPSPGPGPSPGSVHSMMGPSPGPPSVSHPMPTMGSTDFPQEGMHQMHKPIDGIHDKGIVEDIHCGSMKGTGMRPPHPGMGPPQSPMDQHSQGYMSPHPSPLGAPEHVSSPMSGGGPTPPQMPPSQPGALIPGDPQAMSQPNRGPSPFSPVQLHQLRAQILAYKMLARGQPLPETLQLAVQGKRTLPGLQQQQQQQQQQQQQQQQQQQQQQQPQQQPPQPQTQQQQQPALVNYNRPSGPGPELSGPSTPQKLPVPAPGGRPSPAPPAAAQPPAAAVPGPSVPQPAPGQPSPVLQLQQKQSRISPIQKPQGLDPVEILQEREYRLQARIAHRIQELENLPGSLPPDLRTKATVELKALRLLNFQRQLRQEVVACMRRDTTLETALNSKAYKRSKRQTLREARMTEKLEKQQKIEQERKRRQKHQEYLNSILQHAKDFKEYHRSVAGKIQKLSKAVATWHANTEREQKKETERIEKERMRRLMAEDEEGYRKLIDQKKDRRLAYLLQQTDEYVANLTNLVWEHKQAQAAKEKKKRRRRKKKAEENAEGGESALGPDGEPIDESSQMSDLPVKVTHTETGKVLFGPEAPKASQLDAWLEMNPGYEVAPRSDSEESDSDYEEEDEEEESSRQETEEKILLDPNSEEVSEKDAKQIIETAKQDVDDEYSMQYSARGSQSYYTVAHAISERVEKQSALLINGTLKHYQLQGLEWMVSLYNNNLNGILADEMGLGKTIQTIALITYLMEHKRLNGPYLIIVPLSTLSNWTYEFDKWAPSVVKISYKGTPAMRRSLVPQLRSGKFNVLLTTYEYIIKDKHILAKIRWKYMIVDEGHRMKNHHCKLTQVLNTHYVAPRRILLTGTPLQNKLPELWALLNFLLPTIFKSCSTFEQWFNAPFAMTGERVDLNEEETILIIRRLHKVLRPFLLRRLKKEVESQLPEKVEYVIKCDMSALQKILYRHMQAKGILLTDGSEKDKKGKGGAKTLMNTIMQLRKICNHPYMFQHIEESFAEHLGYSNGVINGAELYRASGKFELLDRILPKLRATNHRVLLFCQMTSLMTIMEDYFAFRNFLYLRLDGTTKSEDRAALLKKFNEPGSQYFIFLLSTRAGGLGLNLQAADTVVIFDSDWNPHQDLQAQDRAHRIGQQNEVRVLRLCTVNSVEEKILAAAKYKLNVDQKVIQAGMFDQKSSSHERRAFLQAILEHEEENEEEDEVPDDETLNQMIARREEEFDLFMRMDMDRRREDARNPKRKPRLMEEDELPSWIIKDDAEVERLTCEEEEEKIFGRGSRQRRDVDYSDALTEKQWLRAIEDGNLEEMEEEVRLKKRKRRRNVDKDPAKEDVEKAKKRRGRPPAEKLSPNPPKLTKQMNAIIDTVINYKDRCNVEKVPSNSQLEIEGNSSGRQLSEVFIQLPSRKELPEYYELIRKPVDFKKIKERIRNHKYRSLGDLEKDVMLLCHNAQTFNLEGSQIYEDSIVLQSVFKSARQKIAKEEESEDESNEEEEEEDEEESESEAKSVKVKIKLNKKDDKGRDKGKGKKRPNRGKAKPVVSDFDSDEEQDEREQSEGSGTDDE
# test.description: SMARCA2 HiBiT degradation assay in HeLa cells
# Assay type: cell-based
# measurement.setup: HeLa, 18 hours incubation, read-out: HeLa-HiBit-SM2 Dmax (%)
experimental.readout: Dmax

compound	assay.system	Dmax
N#CC1(CN2CCN3c4cc(-c5ccccc5O)nnc4NC[C@H]3C2)CCN(CC2CCN(c3ccc4c(c3)C(=O)N(C3CCC(=O)NC3=O)C4=O)CC2)CC1 (stereo partly drawn) [Example 178]	SMARCA2-HiBiT (Homo sapiens)	> 85%
CC1CN(CC2CCN(c3ccc4c(c3)C(=O)N(C3CCC(=O)NC3=O)C4)CC2)CCN1C(=O)N1CCN2c3cc(-c4ccccc4O)nnc3NC[C@H]2C1 (stereo partly drawn) [Example 104]	SMARCA2-HiBiT (Homo sapiens)	> 85%

Value (Dmax, SMARCA2-HiBiT (Homo sapiens)) for record O=C1CCC(N2Cc3cc(N4CCC(CNC56CCC(C(=O)N7CCN8c9cc(-c%10ccccc%10O)nnc9NC[C@H]8C7)(CC5)CC6)CC4)ccc3C2=O)C(=O)N1 (stereo partly drawn) [Example 84] = > 85%

====

# assay.system: SMARCA4-HiBiT (Homo sapiens, UniProt P51532)
# Construct: SMARCA4-HiBiT knock-in Hela monoclonal cell (CS3023226); host or cells: HeLa monoclonal knock-in line (CRISPR HiBiT knock-in at the endogenous locus, heterozygous)
# Sequence (P51532 whole entry): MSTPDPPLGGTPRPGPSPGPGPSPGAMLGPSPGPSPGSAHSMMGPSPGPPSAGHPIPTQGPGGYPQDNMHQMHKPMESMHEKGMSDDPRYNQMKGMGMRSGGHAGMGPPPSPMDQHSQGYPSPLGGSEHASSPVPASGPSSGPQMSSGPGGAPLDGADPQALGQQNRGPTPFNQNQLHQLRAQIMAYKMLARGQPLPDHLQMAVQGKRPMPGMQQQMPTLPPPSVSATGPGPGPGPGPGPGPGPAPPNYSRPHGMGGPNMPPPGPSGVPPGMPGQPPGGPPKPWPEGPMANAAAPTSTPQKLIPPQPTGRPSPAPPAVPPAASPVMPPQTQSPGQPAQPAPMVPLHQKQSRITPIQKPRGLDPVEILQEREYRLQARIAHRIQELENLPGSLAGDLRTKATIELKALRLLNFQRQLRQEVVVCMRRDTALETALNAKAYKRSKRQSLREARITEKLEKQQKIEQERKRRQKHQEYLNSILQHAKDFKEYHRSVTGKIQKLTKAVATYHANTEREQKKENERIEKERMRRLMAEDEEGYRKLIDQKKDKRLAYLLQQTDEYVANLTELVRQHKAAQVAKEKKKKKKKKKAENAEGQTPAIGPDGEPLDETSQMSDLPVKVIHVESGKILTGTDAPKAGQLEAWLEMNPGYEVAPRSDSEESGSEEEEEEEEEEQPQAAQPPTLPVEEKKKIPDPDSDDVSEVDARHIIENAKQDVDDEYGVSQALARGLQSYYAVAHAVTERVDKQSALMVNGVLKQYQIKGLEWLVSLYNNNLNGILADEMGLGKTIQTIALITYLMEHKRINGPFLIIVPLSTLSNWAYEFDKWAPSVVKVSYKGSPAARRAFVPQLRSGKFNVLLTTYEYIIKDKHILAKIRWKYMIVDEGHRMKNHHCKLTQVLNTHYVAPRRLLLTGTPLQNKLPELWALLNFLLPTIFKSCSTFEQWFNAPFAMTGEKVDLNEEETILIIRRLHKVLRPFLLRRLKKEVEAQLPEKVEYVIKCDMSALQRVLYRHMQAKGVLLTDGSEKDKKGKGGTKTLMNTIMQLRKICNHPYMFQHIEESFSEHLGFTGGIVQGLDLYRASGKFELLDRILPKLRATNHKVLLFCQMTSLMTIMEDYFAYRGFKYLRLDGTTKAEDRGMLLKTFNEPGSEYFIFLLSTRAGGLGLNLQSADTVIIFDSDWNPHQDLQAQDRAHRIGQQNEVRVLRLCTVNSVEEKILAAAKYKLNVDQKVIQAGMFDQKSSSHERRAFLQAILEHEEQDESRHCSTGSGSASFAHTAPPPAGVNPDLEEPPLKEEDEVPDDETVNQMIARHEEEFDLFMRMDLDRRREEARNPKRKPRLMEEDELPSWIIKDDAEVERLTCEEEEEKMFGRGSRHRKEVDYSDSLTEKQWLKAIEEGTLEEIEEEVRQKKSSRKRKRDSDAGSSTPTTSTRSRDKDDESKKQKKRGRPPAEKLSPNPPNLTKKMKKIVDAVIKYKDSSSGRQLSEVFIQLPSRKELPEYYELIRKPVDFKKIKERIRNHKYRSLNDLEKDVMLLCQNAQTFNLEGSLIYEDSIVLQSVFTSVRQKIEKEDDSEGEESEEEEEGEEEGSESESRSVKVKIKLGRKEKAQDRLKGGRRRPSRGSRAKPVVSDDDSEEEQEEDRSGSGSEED
# test.description: SMARCA4 HiBiT degradation assay in HeLa cells
# Type: cell-based
# measurement.setup: HeLa, 18 hours incubation, read-out: HeLa-HiBit-SM4 Dmax (%)
experimental.readout: Dmax

compound	Dmax
C[C@H]1CN(CC2CCN(c3ccc4c(c3)C(=O)N(C3CCC(=O)NC3=O)C4)CC2)CCN1C(=O)N1CCN2c3cc(-c4ccccc4O)nnc3NC[C@H]2C1 (stereo partly drawn)	75 to 85%
O=C1CCC(N2C(=O)c3ccc(N4CC(CN5CCC(CN6CCN7c8cc(-c9ccccc9O)nnc8NC[C@H]7C6)CC5)C4)cc3C2=O)C(=O)N1 (stereo partly drawn)	> 85%
O=C1CCC(N2C(=O)c3ccc(N4CCN(CCN5CCC(N6CCN7c8cc(-c9ccccc9O)nnc8NC[C@H]7C6)CC5)CC4)cc3C2=O)C(=O)N1 (stereo partly drawn)	> 85%
O=C1CCC(N2C(=O)c3cc(F)c(N4CCN(CC5CCN(C(=O)N6CCN7c8cc(-c9ccccc9O)nnc8NC[C@H]7C6)CC5)CC4)cc3C2=O)C(=O)N1 (stereo partly drawn)	≤ 50%
O=C1CCC(n2ccc3cc(N4CCC(CN5CCC(N6CCN7c8cc(-c9ccccc9O)nnc8NC[C@H]7C6)CC5)CC4)ccc3c2=O)C(=O)N1 (stereo partly drawn)	> 85%

Shift focus to the following entry.
Value of Dmax reported for the compound O=C1CCC(N2C(=O)c3cccc(N4CCC(N5CCC(N6CCN7c8cc(-c9ccccc9O)nnc8NC[C@H]7C6)CC5)CC4)c3C2=O)C(=O)N1 (stereo partly drawn) is > 85%

====

Please provide measured DC50 for the entries that follow.
# assay.system: SMARCA4-HiBiT (Homo sapiens)
# Construct: SMARCA4-HiBiT knock-in Hela monoclonal cell (CS3023226); host or cells: HeLa monoclonal knock-in line (CRISPR HiBiT knock-in at the endogenous locus, heterozygous)
# test.description: SMARCA4 HiBiT degradation assay in HeLa cells
# Format: cell-based
# measurement.setup: 18 hours incubation, read-out: HeLa-HiBit-SM4 DC50

Consider the following illustrative entries.
compound	assay.system	DC50
O=C1CCC(N2C(=O)c3ccc(N4CCC(CCN5C[C@@H]6[C@H](C5)[C@H]6CN5CCN6c7cc(-c8ccccc8O)nnc7NC[C@H]6C5)CC4)cc3C2=O)C(=O)N1 (stereo partly shown) [Example 152]	SMARCA4-HiBiT (Homo sapiens)	< 10 nM
C[C@H]1CN(CC2CCN(c3ccc4c(c3)C(=O)N(C3CCC(=O)NC3=O)C4)CC2)CCN1C(=O)N1CCN2c3cc(-c4ccccc4O)nnc3NC[C@H]2C1 (stereo partly shown) [Example 112]	SMARCA4-HiBiT (Homo sapiens)	< 10 nM
O=C1CCC(N2Cc3ccc(N4CC[C@H](CN5CCN(C(=O)N6CCN7c8cc(-c9ccccc9O)nnc8NC[C@H]7C6)CC5)[C@@H](F)C4)cc3C2=O)C(=O)N1 (stereo partly shown) [Example 205]	SMARCA4-HiBiT (Homo sapiens)	10 to 100 nM

For every listed record, write down its DC50.
1. O=C1CCC(N2C(=O)c3ccc(N4CC(CN5CCN(C(=O)N6CCN7c8cc(-c9ccccc9O)nnc8NC[C@H]7C6)CC5)C4)cc3C2=O)C(=O)N1 (stereo partly shown) [Example 82]
2. NC1(C(=O)OCN2C(=O)CCC(N3C(=O)c4ccc(N5CCC(CN6CCC(CN7CCN8c9cc(-c%10ccccc%10O)nnc9NC[C@H]8C7)CC6)CC5)cc4C3=O)C2=O)CC1 (stereo partly shown) [Example 131]
3. O=C1CCC(N2C(=O)c3ccc(N4CCC(F)(F)C(CN5C[C@@H]6[C@H](C5)[C@H]6CN5CCN6c7cc(-c8ccccc8O)nnc7NC[C@H]6C5)C4)cc3C2=O)C(=O)N1 (stereo partly shown) [Example 55]
4. O=C1CCC(N2C(=O)c3ccc(N4CC5CCC(C4)C5CN4C[C@@H]5[C@H](C4)[C@H]5CN4CCN5c6cc(-c7ccccc7O)nnc6NC[C@H]5C4)cc3C2=O)C(=O)N1 (stereo partly shown) [Example 53]

["< 10 nM", "< 10 nM", "10 to 100 nM", "< 10 nM"]

For every listed record, write down its DC50.
1. CC1(CN2CCN3c4cc(-c5ccccc5O)nnc4NC[C@H]3C2)CCN(CC2CCN(c3ccc4c(c3)C(=O)N(C3CCC(=O)NC3=O)C4=O)CC2)CC1 (stereo partly shown) [Example 37]
2. O=C1CCC(N2C(=O)c3ccc(N4CCC(CN5CCC(O)(CN6CCN7c8cc(-c9ccccc9O)nnc8NC[C@H]7C6)CC5)CC4)cc3C2=O)C(=O)N1 (stereo partly shown) [Example 38]
3. O=C1CCC(N2C(=O)c3ccc(N4CCC(CN5C6COCC5CC(CN5CCN7c8cc(-c9ccccc9O)nnc8NC[C@H]7C5)C6)CC4)cc3C2=O)C(=O)N1 (stereo partly shown) [Example 133]
4. O=C1CCC(N2C(=O)c3ccc(CN4CCC(CN5CCC(CN6CCN7c8cc(-c9ccccc9O)nnc8NC[C@H]7C6)CC5)CC4)cc3C2=O)C(=O)N1 (stereo partly shown) [Example 187]
5. O=C1CCC(N2C(=O)c3ccc(N4CCC(N5CCN6c7cc(-c8ccccc8O)nnc7NC[C@H]6C5)C4)cc3C2=O)C(=O)N1 (stereo partly shown) [Example 156]
6. O=C1CCC(N2C(=O)c3ccc(N4CC(CN5CCC(CN6CCN7c8cc(-c9ccccc9O)nnc8NC[C@H]7C6)CC5)C4)cc3C2=O)C(=O)N1 (stereo partly shown) [Example 247]
7. O=C1CCC(N2Cc3ccc(N4CCC(CN5CCN(C(=O)N6CCN7c8cc(-c9ccccc9O)nnc8NC[C@H]7C6)C(C(F)(F)F)C5)CC4)cc3C2=O)C(=O)N1 (stereo partly shown) [Example 100]
8. O=C1CCC(N2C(=O)c3ccc(N4CCC(CN5C[C@@H]6[C@H](C5)[C@H]6CN5CCN6c7cc(-c8ccccc8O)nnc7NC[C@H]6C5)C(F)(F)C4)cc3C2=O)C(=O)N1 (stereo partly shown) [Example 182]

< 10 nM
< 10 nM
< 10 nM
< 10 nM
10 to 100 nM
< 10 nM
10 to 100 nM
10 to 100 nM

For every listed record, write down its DC50.
1. CC1CC(C(=O)N2CCN3c4cc(-c5ccccc5O)nnc4NC[C@H]3C2)CCN1CC1CCN(c2ccc3c(c2)C(=O)N(C2CCC(=O)NC2=O)C3)CC1 (stereo partly shown) [Example 265]
2. COC1(CN2CCN3c4cc(-c5ccccc5O)nnc4NC[C@H]3C2)CCN(CC2CCN(c3ccc4c(c3)CN(C3CCC(=O)NC3=O)C4=O)CC2)CC1 (stereo partly shown) [Example 251]
3. O=C1CCC(N2C(=O)c3ccc(OC4CCN(CC5CCN(CCN6CCN7c8cc(-c9ccccc9O)nnc8NC[C@H]7C6)CC5)CC4)cc3C2=O)C(=O)N1 (stereo partly shown) [Example 216]
4. O=C1CCC(N2C(=O)c3ccc(N4CCC5(CC4)CC(N4C[C@@H]6[C@@H](CN7CCN8c9cc(-c%10ccccc%10O)nnc9NC[C@H]8C7)[C@@H]6C4)C5)cc3C2=O)C(=O)N1 (stereo partly shown) [Example 93]
5. O=C1CCC(N2Cc3cc(OCCN4CCC(CN5CCN6c7cc(-c8ccccc8O)nnc7NC[C@H]6C5)CC4)ccc3C2=O)C(=O)N1 (stereo partly shown) [Example 207]
6. O=C1CCC(N2C(=O)c3ccc(N4CCC(CN5C[C@@H]6[C@H](C5)[C@H]6CN5CCN6c7cc(-c8ccccc8O)nnc7NC[C@H]6C5)[C@@H](F)C4)cc3C2=O)C(=O)N1 (stereo in doubt) [Example 192]
7. O=C1CCC(N2C(=O)c3ccc(N4CC[C@H](CN5CCC(C(=O)N6CCN7c8cc(-c9ccccc9O)nnc8NC[C@H]7C6)CC5)[C@@H](F)C4)cc3C2=O)C(=O)N1 (stereo partly shown) [Example 202]

1: 10 to 100 nM; 2: < 10 nM; 3: < 10 nM; 4: < 10 nM; 5: 10 to 100 nM; 6: < 10 nM; 7: 10 to 100 nM
